Cited source: paper PMC8711299

Tested on: methicillin-resistant Staphylococcus aureus HO 5096 0412 (MRSA)
Type: cell-based
Details: methicillin-resistant HO 5096 0412
Excerpt: […]
No end group written: not given here.
ENDPOINT: MIC MRSA (µM)
Just the number please, in µM, no unit attached.

Please review the entries below; each comes with its answer.
>>> numeric_value("VRKPPYLPRPRPRPLGGGKIILRIRWR-NH2 [hyP1CoG2]")
2.5
>>> numeric_value("KRRVRWIIW-NH2 [optP7]")
6
>>> numeric_value("RWRRPIRRRPIRPPFWR-NH2 [Bac5-v291]")
27

Now, please, on to the next substance.
Q) # input substance: KIILRIRWR-NH2 [optP1] ; wanted: its MIC MRSA
A) 1.5

* * *

System: human red blood cells
Type: cell-based
Method: The protocol to determine the haemolytic activity of the peptides and HC50 values were described previously ([Grimsey et al., 2020]). Briefly, human blood was washed and diluted with PBS (4% v/v) and incubated with a pre-made dilution series of the peptides and incubated for 1 h at 37 C. […] Haemoglobin was measured at 414 and 546 nm using an ELISA plate reader. HC50 values were determined using the Prism software (GraphPad).
No end group written: not given here.
ENDPOINT: Therapeutic window HC50/MIC(MRSA)

Please review the entries below; each comes with its answer.
>>> result("RWRRPIRRRPIRPPFWRKKKKRRVRWIIW-NH2 [hyP7B5K]")
41
>>> result("RWRRPIRRRPIRPPFWRGGGKRRVRWIIW-NH2 [hyP7B5G]")
51

Q) # input substance: KRRVRWIIW-NH2 [optP7] ; wanted: its Therapeutic window HC50/MIC(MRSA)
A) >32.5

Q) # input substance: RWRRPIRRRPIRPPFWR-NH2 [Bac5-v291] ; wanted: its Therapeutic window HC50/MIC(MRSA)
A) >10.3

Q) # input substance: KRRVRWIIWGGGVRKPPYLPRPRPRPL-NH2 [hyP7CoG2] ; wanted: its Therapeutic window HC50/MIC(MRSA)
A) >30.8

Q) # input substance: VRKPPYLPRPRPRPLGGGKRRVRWIIW-NH2 [hyP7CoG1] ; wanted: its Therapeutic window HC50/MIC(MRSA)
A) >30.8

Q) # input substance: KIILRIRWR-NH2 [optP1] ; wanted: its Therapeutic window HC50/MIC(MRSA)
A) 137

* * *

System: human red blood cells
Assay type: cell-based
Details: red cells of human, 1 h
No end group written: not given here.
ENDPOINT: HC50 (peptide concentration needed to induce haemolysis in human red blood cells at 50%)

>>> result("VRKPPYLPRPRPRPLGGGKIILRIRWR-NH2 [hyP1CoG2]")
">157 µM"

Q) # input substance: VRKPPYLPRPRPRPL-NH2 [consP1] ; wanted: its HC50 (peptide concentration needed to induce haemolysis in human red blood cells at 50%)
A) >139 µM

Q) # input substance: RWRRPIRRRPIRPPFWRKKKKRRVRWIIW-NH2 [hyP7B5K] ; wanted: its HC50 (peptide concentration needed to induce haemolysis in human red blood cells at 50%)
A) 82 µM

* * *

Test system: methicillin-resistant Staphylococcus aureus HO 5096 0412 (MRSA)
Format: cell-based
Conditions: methicillin-resistant HO 5096 0412
No end group written: not given here.
MIC MRSA values, listed per item

>>> result("VRKPPYLPRPRPRPLGGGKRRVRWIIW-NH2 [hyP7CoG1]")
"5 µM"

Q) # input substance: KRRVRWIIWGGGVRKPPYLPRPRPRPL-NH2 [hyP7CoG2] ; wanted: its MIC MRSA
A) 5 µM

Q) # input substance: KIILRIRWRGGGVRKPPYLPRPRPRPL-NH2 [hyP1CoG1] ; wanted: its MIC MRSA
A) 2.5 µM
